Experiment: Solubility of OHPCBs in the SULT assay buffer by light scattering at 400 nm
Type: physicochemical
Conditions: 37°C, 0.25 M potassium phosphate pH 7.0, […] (v/v) acetone, 7.5 mM 2-mercaptoethanol; light scattering
Entries and their Solubility values follow.

>  <SMILES DATA>
Oc1ccc(Cl)cc1-c1ccc(Cl)c(Cl)c1

>  <REL>
=

>  <Solubility (µM)>
100

$$$$
>  <SMILES DATA>
Oc1c(Cl)cc(-c2ccccc2)cc1Cl

>  <REL>
≥

>  <Solubility (µM)>
1000

$$$$
>  <SMILES DATA>
Oc1c(Cl)cc(-c2ccc(Cl)cc2Cl)cc1Cl

>  <REL>
=

>  <Solubility (µM)>
50

$$$$
>  <SMILES DATA>
Oc1ccc(-c2ccc(Cl)cc2Cl)cc1Cl

>  <REL>
=

>  <Solubility (µM)>
100

$$$$
>  <SMILES DATA>
Oc1ccc(-c2ccc(Cl)c(Cl)c2)cc1Cl

>  <REL>
=

>  <Solubility (µM)>
50

$$$$
>  <SMILES DATA>
Oc1ccc(-c2cc(Cl)cc(Cl)c2)cc1Cl

>  <REL>
=

>  <Solubility (µM)>
50

$$$$
>  <SMILES DATA>
Oc1ccc(-c2ccc(Cl)cc2)cc1

>  <REL>
=

>  <Solubility (µM)>
300

$$$$
>  <SMILES DATA>
Oc1c(Cl)cc(-c2ccccc2Cl)cc1Cl

>  <REL>
=

>  <Solubility (µM)>
300

$$$$
>  <SMILES DATA>
Oc1ccc(-c2cc(Cl)ccc2Cl)cc1

>  <REL>
=

>  <Solubility (µM)>
500

$$$$
>  <SMILES DATA>
Oc1ccc(-c2ccc(Cl)c(Cl)c2)cc1

>  <REL>
≥

>  <Solubility (µM)>
500

$$$$
